// data source = patent US10668067B2

- system.under.test: UniProtKB Q15858
- Sequence (Q15858 whole entry): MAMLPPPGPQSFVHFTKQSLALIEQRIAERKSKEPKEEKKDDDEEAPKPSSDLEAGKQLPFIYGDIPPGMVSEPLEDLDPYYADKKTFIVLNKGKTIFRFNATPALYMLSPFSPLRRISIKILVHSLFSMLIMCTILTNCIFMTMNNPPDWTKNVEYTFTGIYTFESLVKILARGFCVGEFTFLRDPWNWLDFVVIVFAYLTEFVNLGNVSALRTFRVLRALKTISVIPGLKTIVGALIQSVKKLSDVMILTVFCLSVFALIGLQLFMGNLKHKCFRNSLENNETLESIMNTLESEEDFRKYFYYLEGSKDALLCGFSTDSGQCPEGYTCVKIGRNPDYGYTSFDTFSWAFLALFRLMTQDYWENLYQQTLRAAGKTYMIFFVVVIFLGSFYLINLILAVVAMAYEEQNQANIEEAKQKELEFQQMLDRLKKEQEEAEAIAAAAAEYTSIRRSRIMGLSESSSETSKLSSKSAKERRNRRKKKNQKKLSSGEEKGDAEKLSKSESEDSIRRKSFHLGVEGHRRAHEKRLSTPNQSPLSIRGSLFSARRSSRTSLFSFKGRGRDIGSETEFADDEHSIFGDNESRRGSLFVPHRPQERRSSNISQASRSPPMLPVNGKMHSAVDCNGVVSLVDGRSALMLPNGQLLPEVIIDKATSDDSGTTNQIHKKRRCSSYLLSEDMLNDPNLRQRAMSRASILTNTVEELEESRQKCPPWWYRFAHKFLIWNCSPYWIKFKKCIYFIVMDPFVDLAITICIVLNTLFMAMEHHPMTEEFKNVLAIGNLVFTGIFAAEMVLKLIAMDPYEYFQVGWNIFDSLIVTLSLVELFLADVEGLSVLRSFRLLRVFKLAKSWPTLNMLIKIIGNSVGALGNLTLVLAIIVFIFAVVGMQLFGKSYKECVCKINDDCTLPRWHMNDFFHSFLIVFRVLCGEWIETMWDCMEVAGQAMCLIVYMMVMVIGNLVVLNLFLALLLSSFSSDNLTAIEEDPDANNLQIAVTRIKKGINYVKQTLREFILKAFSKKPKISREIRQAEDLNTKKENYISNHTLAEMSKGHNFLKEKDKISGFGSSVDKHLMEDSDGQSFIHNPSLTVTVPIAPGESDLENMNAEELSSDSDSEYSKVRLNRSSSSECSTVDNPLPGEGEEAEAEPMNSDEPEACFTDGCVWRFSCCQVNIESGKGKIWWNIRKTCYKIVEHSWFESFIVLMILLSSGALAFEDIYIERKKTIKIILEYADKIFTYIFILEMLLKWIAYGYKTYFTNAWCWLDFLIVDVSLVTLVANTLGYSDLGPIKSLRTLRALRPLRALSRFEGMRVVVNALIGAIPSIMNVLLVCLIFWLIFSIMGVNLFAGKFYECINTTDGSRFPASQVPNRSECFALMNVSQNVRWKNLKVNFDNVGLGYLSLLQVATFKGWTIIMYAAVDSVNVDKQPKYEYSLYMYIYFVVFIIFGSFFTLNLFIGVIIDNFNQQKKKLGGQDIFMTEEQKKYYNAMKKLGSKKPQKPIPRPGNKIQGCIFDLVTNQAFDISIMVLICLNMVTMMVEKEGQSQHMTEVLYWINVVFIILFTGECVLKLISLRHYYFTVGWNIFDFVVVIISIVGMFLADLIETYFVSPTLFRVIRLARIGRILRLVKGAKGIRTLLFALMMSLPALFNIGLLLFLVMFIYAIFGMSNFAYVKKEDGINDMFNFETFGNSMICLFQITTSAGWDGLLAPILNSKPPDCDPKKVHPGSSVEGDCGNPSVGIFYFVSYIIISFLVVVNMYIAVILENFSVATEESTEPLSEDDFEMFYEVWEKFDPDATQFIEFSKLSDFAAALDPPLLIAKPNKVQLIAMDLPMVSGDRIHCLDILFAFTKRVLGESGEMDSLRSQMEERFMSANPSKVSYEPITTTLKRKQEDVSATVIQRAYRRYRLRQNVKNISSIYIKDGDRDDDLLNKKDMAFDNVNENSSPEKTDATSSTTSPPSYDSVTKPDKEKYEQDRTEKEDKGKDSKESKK
- protocol: Nav 1.7 In Vitro PX Assay (PatchXpress whole cell voltage clamp)
- setup.conditions: in-vitro Nav 1.7 PX data
property: log10 IC50 (log10 of the value in nM)

smi	reported.result
CNC(=O)N(c1ccc(S(=O)(=O)Nc2ccon2)cn1)c1cc(Cl)c(-c2ccc(F)cc2)cc1OC	2.10
CNC(=O)N(c1ccc(S(=O)(=O)Nc2ccon2)cn1)c1cc(F)c(-c2ccc(F)c(C)c2)cc1OC	1.79
CNC(=O)N(c1ccc(S(=O)(=O)Nc2ncco2)cn1)c1cc(Cl)c(-c2ccc(F)c(C(F)(F)F)c2)cc1OC	1.30
CNC(=O)N(c1ccc(S(=O)(=O)Nc2ccon2)cn1)c1cc(Cl)c(-c2cc(Cl)cnc2OC)cc1OC	2.22
CNC(=O)N(c1ccc(S(=O)(=O)Nc2ccon2)cn1)c1cc(F)c(-c2ccc(Cl)c(C(F)(F)F)c2)cc1OC	1.15
CNC(=O)N(c1ccc(S(=O)(=O)Nc2ccon2)cn1)c1cc(Cl)c(-c2ccc(Cl)c(F)c2)cc1OC	1.45
CNC(=O)N(c1ccc(S(=O)(=O)Nc2cccnn2)cn1)c1cc(Cl)c(-c2cc(OC)nc(C(F)(F)F)c2)cc1OC	1.41
CNC(=O)N(c1ccc(S(=O)(=O)Nc2ccon2)cc1)c1cc(F)c(-c2ccc(F)c(OC(F)(F)F)c2)cc1OC	2.32
CNC(=O)N(c1ccc(S(=O)(=O)Nc2ncccn2)cn1)c1cc(Cl)c(-c2ccc(Cl)c(C#N)c2)cc1OC	2.03
CONC(=O)N(c1ccc(S(=O)(=O)Nc2ccon2)cn1)c1cc(F)c(-c2cccc(C(F)(F)F)c2)cc1OC	1.84
CNC(=O)N(c1ccc(S(=O)(=O)Nc2ccon2)cn1)c1cc(F)c(-c2cccc(C(F)(F)F)c2)cc1OC	1.52
CNC(=O)N(c1ccc(S(=O)(=O)Nc2ccon2)cn1)c1cc(F)c(-c2cc(Cl)cc(OC)c2)cc1OC	1.71
CNC(=O)N(c1ccc(S(=O)(=O)Nc2ccon2)cn1)c1cc(Cl)c(-c2cccc(OCC(F)(F)F)c2)cc1OC	1.04
CNC(=O)N(c1ccc(S(=O)(=O)Nc2ccon2)cn1)c1cc(Cl)c(-c2ccc(C)c(F)c2)cc1OC	1.81
CNC(=O)N(c1ccc(S(=O)(=O)Nc2ccon2)cn1)c1cc(F)c(-c2ccc(Cl)c(F)c2)cc1OC	1.70
CNC(=O)N(c1ccc(S(=O)(=O)Nc2cnsn2)cn1)c1cc(Cl)c(-c2ccc(F)c(OCC(F)(F)F)c2)cc1OC	1.49
CNC(=O)N(c1ccc(S(=O)(=O)Nc2ncccn2)cn1)c1cc(F)c(-c2ccc(F)c(OCC(F)(F)F)c2)cc1OC	1.60
CNC(=O)N(c1ccc(S(=O)(=O)Nc2ccon2)cn1)c1cc(F)c(-c2cccc(OCC(F)(F)F)c2)cc1OC	1.93
CNC(=O)N(c1ccc(S(=O)(=O)Nc2ccon2)cn1)c1cc(F)c(CCC(F)(F)F)cc1OC	2.93
CNC(=O)N(c1ccc(S(=O)(=O)Nc2ccon2)cn1)c1cc(Cl)c(-c2ccc(F)c(OCC(F)(F)F)c2)cc1OC	1.38
CNC(=O)N(c1ccc(S(=O)(=O)Nc2ccon2)cc1)c1ccc(-c2ccc(Cl)c(C)c2)cc1OC	2.60
CNC(=O)N(c1ccc(S(=O)(=O)Nc2ccon2)cn1)c1ccc(-c2cc(F)cc(Cl)c2)cc1OC	1.92
CNC(=O)N(c1ccc(S(=O)(=O)Nc2ncccn2)cn1)c1cc(F)c(-c2ccc(Cl)c(C)c2)cc1OC	1.59
CNC(=O)N(c1ccc(S(=O)(=O)Nc2ccon2)cn1)c1ccc(-c2cc(Cl)cc(OC)c2)cc1OC	2.00
CNC(=O)N(c1ccc(S(=O)(=O)Nc2ccon2)cn1)c1cc(Cl)c(-c2cccc(OC(F)F)c2)cc1OC	1.86
CNC(=O)N(c1ccc(S(=O)(=O)Nc2ccon2)cn1)c1cc(F)c(-c2cc(C)cc(Cl)c2)cc1OC	1.67
CNC(=O)N(c1ccc(S(=O)(=O)Nc2ccon2)cn1)c1ccc(-c2ccc(F)c(C)c2)cc1OC	2.60
CNC(=O)N(c1ccc(S(=O)(=O)Nc2ccon2)cn1)c1cc(Cl)c(-c2ccc(F)c(OC(F)(F)F)c2)cc1OC	0.78
